FYI, the data here is from patent US20190010233A1.

- target_desc: T1, human PD-L1^ECD-hFc protein (human, UniProt Q9NZQ7 19-239, biotinylated in the PD-1 binding ELISA (Table 3) and in the Octet assay (Table 12))
- T1 construct: The plain and the biotinylated protein are kept as one molecule; also called PD-L1-hFc; Immunogen A; not shown: human IgG Fc fragment (hFc)
- procedure_text: BLI Octet Red 96, biotinylated PD-L1-hFc on SA sensor
readout_label: Kd

Lab book: Kd of chimeric anti-PD-L1 antibody 73D3G2 (antibody, V domains shown, Purified from hybridoma of Harbour H2L2 mice: human variable regions, rat constant regions) VH: EVQLVESGGGLVQPGGSLRLSCAASGFTFNTYWMNWVRQAPGRGLEWVANIKQDGGEKYYVDSVKGRFTISRDNAKNSLYLQMNSLRAEDTAMYYCARDGRSWYPDAFDIWGQGTVVTVSS VL: DIQMTQSPSTLSASVGDRVTITCRASQSISTWLAWYQQKLGKAPKLLIYEVSILESGVPSRFSGSGSGTEFTLTISSLQPDDFATYYCQQYHSFSSFGGGTRVEIK noted as < 1 pM
